Source listed as ChEMBL document CHEMBL1154405.

// Activity lookup, one value per entry
Tested on: Escherichia coli
Experiment: Effect on ompF-lacZ fusion translation in ompX-negative Escherichia coli mutant assessed as percent decrease in Miller units of beta-galactosidase activity after 90 mins relative to control
Type: functional
Set-up: scale not given: the % may be the effect or the level left
All answers are understood in %, so give the number only.

Examples from the recorded data:
O=C(O)c1ccccc1O [SALICYLIC ACID] = 40.9
CCn1cc(C(=O)O)c(=O)c2cc(F)c(N3CCNCC3)cc21 [NORFLOXACIN] = 21.7
c1ccc(-c2ccccn2)nc1 [DIPYRIDYL] = 19

// query Form: Entry = CO[C@@H]1[C@@H](OC(N)=O)[C@@H](O)[C@H](Oc2ccc3c(O)c(NC(=O)c4ccc(O)c(CC=C(C)C)c4)c(=O)oc3c2C)OC1(C)C [NOVOBIOCIN] | System = Escherichia coli | Activity = ____
// result 45.3

###

System: Escherichia coli
Assay: Effect on ompF-lacZ fusion translation in wild type Escherichia coli MC1061 assessed as percent decrease in Miller units of beta-galactosidase activity after 120 mins relative to control
Format: functional
Set-up: scale not given: the % may be the effect or the level left
Reported Activity values follow for various compounds
Value expressed in %; do not type the unit.

CO[C@@H]1[C@@H](OC(N)=O)[C@@H](O)[C@H](Oc2ccc3c(O)c(NC(=O)c4ccc(O)c(CC=C(C)C)c4)c(=O)oc3c2C)OC1(C)C [NOVOBIOCIN] = 50.9
CCn1cc(C(=O)O)c(=O)c2cc(F)c(N3CCNCC3)cc21 [NORFLOXACIN] = 27.5
O=C(O)c1ccccc1O [SALICYLIC ACID] = 45.6

Below: the item to evaluate.
// query Form field: reported Activity of c1ccc(-c2ccccn2)nc1 [DIPYRIDYL]
// result 18.4
